# pKd per entry
- STUDY_SYSTEM: WT recombinant ryanodine-modified RyR2 channels (Mus musculus)
- MEASUREMENT_DESCRIPTION: biochemical
Ends that are not written are not given here.
Reminder that pKd means the negative base-10 logarithm of the concentration expressed in mol/L.

MAVVAGLYGLGEDRQHRKKQ-NH2 [MHBPI] ... 4.56

Record request: pKd value, item MAQVQGLYGLGEDRQHRKKQ-NH2 [LHBP]
4.18

* * *

# Kd per entry
- STUDY_SYSTEM: recombinant WT mouse RyR2 (Mus musculus)
- Sequence (E9Q401 whole entry): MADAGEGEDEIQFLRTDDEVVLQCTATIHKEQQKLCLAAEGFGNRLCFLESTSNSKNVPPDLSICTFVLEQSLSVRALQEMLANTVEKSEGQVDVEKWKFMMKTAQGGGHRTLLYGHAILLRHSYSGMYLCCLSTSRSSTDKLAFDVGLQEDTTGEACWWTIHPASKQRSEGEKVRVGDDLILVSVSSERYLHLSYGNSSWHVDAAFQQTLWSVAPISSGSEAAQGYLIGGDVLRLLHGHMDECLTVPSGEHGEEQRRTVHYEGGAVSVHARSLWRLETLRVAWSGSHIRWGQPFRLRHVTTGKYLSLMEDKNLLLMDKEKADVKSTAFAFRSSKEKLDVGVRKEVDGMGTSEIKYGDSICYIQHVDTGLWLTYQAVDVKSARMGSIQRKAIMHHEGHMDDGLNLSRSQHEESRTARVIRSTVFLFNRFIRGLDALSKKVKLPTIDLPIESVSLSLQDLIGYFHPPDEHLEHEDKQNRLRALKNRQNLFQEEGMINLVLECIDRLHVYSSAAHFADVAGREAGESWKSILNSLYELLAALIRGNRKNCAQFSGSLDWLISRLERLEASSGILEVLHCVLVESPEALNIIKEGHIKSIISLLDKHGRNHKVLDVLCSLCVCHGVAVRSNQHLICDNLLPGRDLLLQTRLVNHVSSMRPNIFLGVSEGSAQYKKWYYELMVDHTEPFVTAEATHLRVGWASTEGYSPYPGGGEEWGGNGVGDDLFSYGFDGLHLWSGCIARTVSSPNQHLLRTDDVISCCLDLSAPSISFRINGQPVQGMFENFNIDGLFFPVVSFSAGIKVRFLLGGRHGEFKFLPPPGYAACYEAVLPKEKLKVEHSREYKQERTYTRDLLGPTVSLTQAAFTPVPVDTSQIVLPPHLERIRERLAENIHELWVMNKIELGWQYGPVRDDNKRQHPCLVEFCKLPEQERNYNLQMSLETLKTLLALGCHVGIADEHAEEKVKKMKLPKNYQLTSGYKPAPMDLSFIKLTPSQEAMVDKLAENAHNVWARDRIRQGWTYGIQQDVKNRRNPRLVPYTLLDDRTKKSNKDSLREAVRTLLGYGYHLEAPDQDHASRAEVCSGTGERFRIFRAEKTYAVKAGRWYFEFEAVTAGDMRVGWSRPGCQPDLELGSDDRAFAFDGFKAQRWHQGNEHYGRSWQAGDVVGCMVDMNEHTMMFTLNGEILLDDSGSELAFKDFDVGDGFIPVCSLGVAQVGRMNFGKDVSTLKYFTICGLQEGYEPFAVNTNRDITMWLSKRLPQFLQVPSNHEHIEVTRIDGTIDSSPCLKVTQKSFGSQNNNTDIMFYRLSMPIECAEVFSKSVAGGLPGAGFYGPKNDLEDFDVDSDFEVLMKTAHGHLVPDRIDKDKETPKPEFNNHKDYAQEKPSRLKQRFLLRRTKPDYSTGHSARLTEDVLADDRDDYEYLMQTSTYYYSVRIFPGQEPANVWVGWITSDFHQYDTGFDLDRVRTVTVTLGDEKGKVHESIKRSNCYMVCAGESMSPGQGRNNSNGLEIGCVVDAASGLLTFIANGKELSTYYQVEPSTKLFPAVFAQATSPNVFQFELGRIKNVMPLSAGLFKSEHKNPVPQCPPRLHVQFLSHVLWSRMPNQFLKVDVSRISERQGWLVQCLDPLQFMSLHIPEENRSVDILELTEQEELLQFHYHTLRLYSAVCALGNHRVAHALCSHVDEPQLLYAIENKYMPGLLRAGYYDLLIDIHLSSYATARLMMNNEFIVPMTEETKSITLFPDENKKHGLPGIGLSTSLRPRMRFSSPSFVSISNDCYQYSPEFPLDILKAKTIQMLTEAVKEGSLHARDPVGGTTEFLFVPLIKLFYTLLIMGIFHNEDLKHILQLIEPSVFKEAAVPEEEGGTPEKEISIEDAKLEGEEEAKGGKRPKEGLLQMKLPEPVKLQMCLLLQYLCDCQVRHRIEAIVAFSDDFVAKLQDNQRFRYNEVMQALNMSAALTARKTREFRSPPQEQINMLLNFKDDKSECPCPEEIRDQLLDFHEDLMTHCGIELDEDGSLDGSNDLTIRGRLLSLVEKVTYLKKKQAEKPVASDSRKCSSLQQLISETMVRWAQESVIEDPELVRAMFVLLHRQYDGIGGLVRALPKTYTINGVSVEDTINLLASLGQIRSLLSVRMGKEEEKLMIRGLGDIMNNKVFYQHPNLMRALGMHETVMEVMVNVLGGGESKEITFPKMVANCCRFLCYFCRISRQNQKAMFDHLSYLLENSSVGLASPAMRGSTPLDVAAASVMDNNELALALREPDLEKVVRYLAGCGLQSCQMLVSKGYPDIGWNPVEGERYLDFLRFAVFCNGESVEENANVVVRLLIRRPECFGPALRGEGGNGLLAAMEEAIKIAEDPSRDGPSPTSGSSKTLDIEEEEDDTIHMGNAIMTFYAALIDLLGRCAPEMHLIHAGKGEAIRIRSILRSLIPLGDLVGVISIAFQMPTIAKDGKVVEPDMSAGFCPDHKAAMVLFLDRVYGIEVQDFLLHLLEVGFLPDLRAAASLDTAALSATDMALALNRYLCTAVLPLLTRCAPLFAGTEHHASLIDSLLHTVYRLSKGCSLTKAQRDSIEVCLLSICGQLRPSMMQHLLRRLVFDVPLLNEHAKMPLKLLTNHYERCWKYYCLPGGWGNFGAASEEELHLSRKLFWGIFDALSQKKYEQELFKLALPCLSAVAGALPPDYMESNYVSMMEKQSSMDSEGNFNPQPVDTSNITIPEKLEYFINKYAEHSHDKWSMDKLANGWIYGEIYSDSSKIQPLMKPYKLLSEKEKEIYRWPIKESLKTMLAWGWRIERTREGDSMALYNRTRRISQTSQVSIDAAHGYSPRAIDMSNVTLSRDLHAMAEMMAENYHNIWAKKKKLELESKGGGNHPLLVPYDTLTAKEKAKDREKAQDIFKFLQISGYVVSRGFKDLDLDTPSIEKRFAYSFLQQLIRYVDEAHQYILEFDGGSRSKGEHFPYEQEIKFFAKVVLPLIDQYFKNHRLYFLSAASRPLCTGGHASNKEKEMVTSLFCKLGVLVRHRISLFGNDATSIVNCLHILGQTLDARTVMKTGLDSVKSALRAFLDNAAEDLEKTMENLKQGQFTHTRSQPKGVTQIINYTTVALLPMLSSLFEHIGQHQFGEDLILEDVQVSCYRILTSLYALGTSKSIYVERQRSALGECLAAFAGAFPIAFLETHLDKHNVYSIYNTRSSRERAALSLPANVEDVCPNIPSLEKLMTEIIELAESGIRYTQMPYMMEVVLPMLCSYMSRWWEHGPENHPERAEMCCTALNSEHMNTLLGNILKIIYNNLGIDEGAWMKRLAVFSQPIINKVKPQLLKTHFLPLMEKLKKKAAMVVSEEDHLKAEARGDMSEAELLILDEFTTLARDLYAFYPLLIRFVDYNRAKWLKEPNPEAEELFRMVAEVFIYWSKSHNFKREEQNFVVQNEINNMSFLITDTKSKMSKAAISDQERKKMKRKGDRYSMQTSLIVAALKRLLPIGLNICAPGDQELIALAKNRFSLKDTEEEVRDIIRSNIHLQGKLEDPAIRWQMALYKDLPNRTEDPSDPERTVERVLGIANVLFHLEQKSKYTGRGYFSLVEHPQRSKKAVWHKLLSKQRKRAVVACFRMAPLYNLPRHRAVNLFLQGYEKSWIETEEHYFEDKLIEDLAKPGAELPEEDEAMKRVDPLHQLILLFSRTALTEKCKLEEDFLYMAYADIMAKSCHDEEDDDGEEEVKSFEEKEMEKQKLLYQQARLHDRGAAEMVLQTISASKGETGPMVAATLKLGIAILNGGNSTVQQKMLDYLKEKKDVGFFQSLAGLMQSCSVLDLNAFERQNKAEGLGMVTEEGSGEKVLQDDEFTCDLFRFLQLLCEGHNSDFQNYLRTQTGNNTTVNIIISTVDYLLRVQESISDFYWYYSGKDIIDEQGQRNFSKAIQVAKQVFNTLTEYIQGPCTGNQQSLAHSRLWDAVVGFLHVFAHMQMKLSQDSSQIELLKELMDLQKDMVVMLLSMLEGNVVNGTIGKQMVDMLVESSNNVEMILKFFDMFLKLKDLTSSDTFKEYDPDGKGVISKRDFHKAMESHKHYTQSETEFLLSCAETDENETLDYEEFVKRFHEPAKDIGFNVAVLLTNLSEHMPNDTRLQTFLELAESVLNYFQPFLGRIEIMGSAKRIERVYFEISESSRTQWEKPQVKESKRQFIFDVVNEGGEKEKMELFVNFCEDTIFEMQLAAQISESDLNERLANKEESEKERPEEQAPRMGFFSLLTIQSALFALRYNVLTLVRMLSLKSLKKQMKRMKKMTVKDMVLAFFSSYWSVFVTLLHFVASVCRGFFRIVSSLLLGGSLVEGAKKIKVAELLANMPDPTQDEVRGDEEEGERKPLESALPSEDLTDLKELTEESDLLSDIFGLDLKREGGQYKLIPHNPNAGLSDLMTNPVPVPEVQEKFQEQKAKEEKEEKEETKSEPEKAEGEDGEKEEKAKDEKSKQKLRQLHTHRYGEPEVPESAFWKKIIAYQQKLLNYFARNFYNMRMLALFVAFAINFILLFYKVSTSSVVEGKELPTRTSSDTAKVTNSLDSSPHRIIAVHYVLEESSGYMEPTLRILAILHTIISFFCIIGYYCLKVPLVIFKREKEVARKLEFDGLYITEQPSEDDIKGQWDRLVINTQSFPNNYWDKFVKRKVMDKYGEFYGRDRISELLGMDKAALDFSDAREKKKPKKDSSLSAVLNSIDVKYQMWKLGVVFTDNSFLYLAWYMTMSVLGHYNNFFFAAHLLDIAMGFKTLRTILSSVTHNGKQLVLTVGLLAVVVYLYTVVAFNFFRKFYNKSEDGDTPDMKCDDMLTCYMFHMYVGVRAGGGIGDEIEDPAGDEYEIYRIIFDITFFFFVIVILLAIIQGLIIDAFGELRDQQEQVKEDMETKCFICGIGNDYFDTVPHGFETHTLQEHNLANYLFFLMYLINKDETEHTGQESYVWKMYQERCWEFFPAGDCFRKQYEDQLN
- MEASUREMENT_DESCRIPTION: TAA block of EMD 41000-activated WT RyR2, single channel in planar bilayer
Response body: numeric value in µM, unit text excluded.

CCCCCC[N+](CCCCCC)(CCCCCC)CCCCCC ... 2.58

Record request: Kd value, item "CCCC[N+](CCCC)(CCCC)CCCC"
179
